system: Pseudomonas aeruginosa; assay: Broth microdilution MIC (Example 12); assay type: cell-based; details: P. aeruginosa CDC 518; KPC/AmpC
Parameter measured: MIC

# Compound smiles, MIC
records = [
    ("C[C@@H](O)[C@H]1C(=O)N2C(C(=O)O)=C(S[C@@H]3CN[C@H](C(=O)N(C)C)C3)[C@H](C)[C@H]12", ">8 µg/mL"),
]

Exercise: Look at this compound and give its reported MIC. `CC(C)(O/N=C(\C(=O)N[C@@H]1C(=O)N2C(C(=O)[O-])=C(C[n+]3ccccc3)CS[C@H]12)c1csc(N)n1)C(=O)O`
Key: 32 µg/mL

Exercise: Dear colleague, I am looking for the recorded MIC of the following compound: `NCC[C@H](O)C(=O)N[C@@H]1C[C@H](N)[C@@H](O[C@H]2O[C@H](CN)[C@@H](O)[C@H](O)[C@H]2O)[C@H](O)[C@H]1O[C@H]1O[C@H](CO)[C@@H](O)[C@H](N)[C@H]1O`
Key: 16 µg/mL

Exercise: Which MIC value belongs to `C[C@H]1COc2c(N3CCN(C)CC3)c(F)cc3c(=O)c(C(=O)O)cn1c23` ?
Key: >8 µg/mL

* * *

Attribute: MIC
test system: Pseudomonas aeruginosa; experiment: Broth microdilution MIC (Example 12); type: cell-based; details: P. aeruginosa CDC 241; IMP/OXA
# output: bare number, implied unit µg/mL

Exercise: Sample `NCC[C@H](O)C(=O)N[C@@H]1C[C@H](N)[C@@H](O[C@H]2O[C@H](CN)[C@@H](O)[C@H](O)[C@H]2O)[C@H](O)[C@H]1O[C@H]1O[C@H](CO)[C@@H](O)[C@H](N)[C@H]1O` — what was its MIC?
Key: 32

Exercise: What value of MIC has been reported for the following compound? `C[C@H]1COc2c(N3CCN(C)CC3)c(F)cc3c(=O)c(C(=O)O)cn1c23`
Key: 8

* * *

system: vancomycin-intermediate Staphylococcus aureus (VISA); experiment: Broth microdilution MIC (Example 12); assay type: cell-based; settings: S. aureus NRS 1 (hVISA)
Parameter measured: MIC

# Compound smiles, MIC
rows = [
    ("CC(=O)NC[C@H]1CN(c2ccc(N3CCOCC3)c(F)c2)C(=O)O1", "1 µg/mL"),
    ("CCC[C@@H]1C[C@@H](C(=O)N[C@@H]([C@H]2O[C@H](SC)[C@H](O)[C@@H](O)[C@H]2O)[C@H](C)Cl)N(C)C1", ">8 µg/mL"),
    ("C[C@H]1COc2c(N3CCN(C)CC3)c(F)cc3c(=O)c(C(=O)O)cn1c23", "4 µg/mL"),
]

Consider the additional molecule presented here.
Exercise: Quick one: MIC for `CN[C@H](CC(C)C)C(=O)N[C@H]1C(=O)N[C@@H](CC(N)=O)C(=O)N[C@H]2C(=O)N[C@H]3C(=O)N[C@H](C(=O)N[C@H](C(=O)O)c4cc(O)cc(O)c4-c4cc3ccc4O)[C@H](O)c3ccc(c(Cl)c3)Oc3cc2cc(c3O[C@@H]2O[C@H](CO)[C@@H](O)[C@H](O)[C@H]2O[C@H]2C[C@](C)(N)[C@H](O)[C@H](C)O2)Oc2ccc(cc2Cl)[C@H]1O` ?
Key: 4 µg/mL

* * *

test system: Pseudomonas aeruginosa; experiment: Broth microdilution MIC (Example 12); type: cell-based; conditions: P. aeruginosa CDC 231; KPC/OXA
// MIC lookup, one value per entry

# annotated cases, reported MIC shown
# Compound smiles, MIC
rows = [
    ("NCC[C@H](O)C(=O)N[C@@H]1C[C@H](N)[C@@H](O[C@H]2O[C@H](CN)[C@@H](O)[C@H](O)[C@H]2O)[C@H](O)[C@H]1O[C@H]1O[C@H](CO)[C@@H](O)[C@H](N)[C@H]1O", "8 µg/mL"),
    ("CC(C)(O/N=C(\\C(=O)N[C@@H]1C(=O)N2C(C(=O)[O-])=C(C[n+]3ccccc3)CS[C@H]12)c1csc(N)n1)C(=O)O", ">64 µg/mL"),
    ("C[C@@H](O)[C@H]1C(=O)N2C(C(=O)O)=C(S[C@@H]3CN[C@H](C(=O)N(C)C)C3)[C@H](C)[C@H]12", ">8 µg/mL"),
]

Next compound, please.
Exercise: Entry under review: `C[C@H]1COc2c(N3CCN(C)CC3)c(F)cc3c(=O)c(C(=O)O)cn1c23` . Reported MIC?
Key: >8 µg/mL

Origin of the recorded values: patent US20230124862A1
